meta.source: patent US9296759B2

Entries annotated with measured inhibition in vivo at 10 mg/kg
# System: Abeta 40
# protocol notes: In vivo inhibition of beta-secretase: Abeta 40 reduction in CSF and brain of the rat
# measurement setup: Abeta 40, rat brain, 10 mpk, after 4 hrs; read-out: % reduction of rat brain levels at 10 mpk
Record the value in %, omitting the unit from your answer.

INSERT INTO results (chemical_structure, measured_metric, display_unit, recorded_result) VALUES
  ('NC1=N[C@@]2(CCO1)c1cc(NC(=O)c3ccc(Cl)cn3)ccc1Oc1c2cc(-c2cncc(F)c2)nc1F', 'inhibition in vivo at 10 mg/kg', '%', 70),
  ('COc1ccc(C(=O)Nc2ccc3c(c2)[C@@]2(CCSC(N)=N2)c2cc(C4=CCCOC4)nc(F)c2O3)nc1', 'inhibition in vivo at 10 mg/kg', '%', 58),
  ('NC1=N[C@@]2(CCO1)c1cc(NC(=O)c3ccc(F)cn3)ccc1Oc1c2cc(C2=CCOCC2)nc1F', 'inhibition in vivo at 10 mg/kg', '%', 72);

q: # query: inhibition in vivo at 10 mg/kg of entry NC1=N[C@@]2(CCS1)c1cc(NC(=O)c3ccc(F)cn3)ccc1Oc1c2cc(C2=CCOCC2)nc1F
a: 56

q: Entry under review: NC1=N[C@@]2(CCO1)c1cc(NC(=O)c3ccc(F)cn3)ccc1Oc1c2cc(-c2cncc(F)c2)nc1F . Reported inhibition in vivo at 10 mg/kg?
a: 46

q: Using the record for COc1cnc(C(=O)Nc2ccc3c(c2)[C@@]2(CCOC(N)=N2)c2cc(-c4ccnc(F)c4)cc(F)c2O3)cn1 , report its inhibition in vivo at 10 mg/kg.
a: 21

q: What does the data say about its inhibition in vivo at 10 mg/kg? Entry: NC1=N[C@@]2(CCS1)c1cc(NC(=O)c3ccc(Cl)cn3)ccc1Oc1c2cc(C2=CCOCC2)nc1F
a: 70

q: Return reported inhibition in vivo at 10 mg/kg; argument: COc1cnc(C(=O)Nc2ccc3c(c2)[C@@]2(CCOC(N)=N2)c2cc(C4=CCCOC4)nc(F)c2O3)cn1
a: 76

###

# target or system: BACE 1 (beta secretase enzyme) (Homo sapiens (Human), UniProt P56817)
# Sequence (P56817 46-501): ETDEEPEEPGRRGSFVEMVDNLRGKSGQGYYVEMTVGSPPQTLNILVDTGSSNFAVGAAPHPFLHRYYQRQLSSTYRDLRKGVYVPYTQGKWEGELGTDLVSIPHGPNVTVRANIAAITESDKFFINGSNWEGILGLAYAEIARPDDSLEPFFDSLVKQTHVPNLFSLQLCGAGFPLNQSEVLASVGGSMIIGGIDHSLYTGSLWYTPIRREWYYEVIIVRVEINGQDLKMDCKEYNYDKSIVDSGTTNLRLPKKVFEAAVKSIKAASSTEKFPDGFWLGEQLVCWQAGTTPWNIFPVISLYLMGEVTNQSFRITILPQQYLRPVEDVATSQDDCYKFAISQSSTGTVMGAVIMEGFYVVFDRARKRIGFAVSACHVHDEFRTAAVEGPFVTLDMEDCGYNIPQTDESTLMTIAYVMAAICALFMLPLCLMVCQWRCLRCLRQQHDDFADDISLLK
pIC50 overview
Keep it numeric: pIC50 is minus log10 of the concentration in mol/L.

Worked cases, answers included:
INSERT INTO assay_data (compound, target_or_system, recorded_result) VALUES
  ('COc1ccc(C(=O)Nc2ccc3c(c2)[C@@]2(CCSC(N)=N2)c2cc(N4CCOCC4)cc(F)c2O3)nc1 [Example 107]', 'BACE 1 (beta secretase enzyme) (Homo sapiens (Human), UniProt P56817)', 8.11),
  ('COc1cnc(C(=O)Nc2ccc3c(c2)[C@@]2(CCSC(N)=N2)c2cc(C4=CCOCC4)cc(F)c2O3)cn1 [Example 60]', 'BACE 1 (beta secretase enzyme) (Homo sapiens (Human), UniProt P56817)', 8.21),
  ('COc1cnc(C(=O)Nc2ccc3c(c2)[C@]2(CCSC(N)=N2)c2cc(Cl)nc(F)c2O3)cn1 [Example 55]', 'BACE 1 (beta secretase enzyme) (Homo sapiens (Human), UniProt P56817)', 6.04),
  ('Cc1nc(C(=O)Nc2ccc3c(c2)[C@@]2(CCOC(N)=N2)c2cc(-c4ccnc(F)c4)nc(F)c2O3)cs1 [Example 99]', 'BACE 1 (beta secretase enzyme) (Homo sapiens (Human), UniProt P56817)', 9.10);

# input for lookup
q: Given the entry NC1=N[C@@]2(CCO1)c1cc(NC(=O)c3cnc(Cl)cn3)ccc1Oc1c2cc(Cl)nc1F [Example 49] , what pIC50 was observed with BACE 1 (beta secretase enzyme) (Homo sapiens (Human), UniProt P56817)?
a: 7.79
